Please go through the items and note down their EC90.
tested on: HSV-1; assay: Antiviral activity, HSV-1 in Vero cells, plaque method; format: cell-based; details: Human alphaherpesvirus 1, 20 hours, 90% inhibition of plaque formation
Return type: number; implicit unit µM.

Data request: For the compound "Cc1c(NC(=O)OC(C)(C)C)ccc2nc(N(C)[C@@H](Cc3ccccc3)C(=O)N(C)CCc3ccccn3)oc(=O)c12" , what EC90 is on record?
Data returned: 11.5

Data request: # EC90 lookup, item "Cc1c(NC(=O)c2cccc(Cl)c2)ccc2nc(NC(C)(C)C(=O)N(C)CCc3ccccn3)oc(=O)c12"
Data returned: 6.3

Data request: # lookup: EC90 of "Cc1c(NC(=O)c2ccc(CCl)cc2)ccc2nc(NC(C)(C)C(=O)N(C)CCc3ccccn3)oc(=O)c12"
Data returned: 10.2

====

test system: HSV-1; test: Antiviral activity, HSV-1 in Vero cells, plaque method; assay type: cell-based; details: Human alphaherpesvirus 1, 20 hours, 90% inhibition of plaque formation
Endpoint label: EC90

Data request: Endpoint output: EC90 of Cc1c(NC(=O)c2ccc([N+](=O)[O-])cc2)ccc2nc(NC(C)(C)C(=O)N(C)CCc3ccccn3)oc(=O)c12 [Compound No.142] . Value?
Data returned: 10.4 µM

Data request: // lookup EC90 for Cc1c(NC(=O)c2ccccc2Br)ccc2nc(NC(C)(C)C(=O)N(C)CCc3ccccn3)oc(=O)c12 [compound 199]
Data returned: 4.1 µM

Data request: Which EC90 reading was recorded for the molecule Cc1c(NC(=O)OC(C)(C)C)ccc2nc(N[C@@H](CC3CCCCC3)C(=O)N(C)CCc3ccncc3)oc(=O)c12 [Compound No.55] ?
Data returned: 5.9 µM

Data request: Entry Cc1c(NC(=O)CCNC(=O)c2ccc(C(F)(F)F)cc2)ccc2nc(NC(C)(C)C(=O)N(C)CCc3ccccn3)oc(=O)c12 [Compound No.210] : reported EC90 = ?
Data returned: > 12.5 µM

Data request: // query EC90 value for entry CCCCCc1ccc(C(=O)Nc2ccc3nc(NC(C)(C)C(=O)N(C)CCc4ccccn4)oc(=O)c3c2C)cc1 [Compound No.185]
Data returned: 3.5 µM

Data request: Which value of EC90 has been reported for Cc1c(NC(=O)c2cc(Cl)sc2Cl)ccc2nc(NC(C)(C)C(=O)N(C)CCc3ccccn3)oc(=O)c12 [Compound No.181] in the records?
Data returned: 10.9 µM

Data request: Entry under review: Cc1c(NC(=O)c2cccs2)ccc2nc(N[C@@H](C)C(=O)N(C)CCc3ccccn3)oc(=O)c12 [Compound No.135] . Reported EC90?
Data returned: > 12.5 µM

Data request: Give the measured EC90 of Cc1c(NC(=O)c2ccc(C(F)(F)F)cc2)ccc2nc(NC(C)(C)C(=O)N(C)CCc3ccccn3)oc(=O)c12 [Compound No.146] .
Data returned: 5.6 µM

Data request: Value lookup for EC90; key = Cc1c(NC(=O)c2ccco2)ccc2nc(NC(C)(C)C(=O)N(C)CCc3ccccn3)oc(=O)c12 [Compound No.139]
Data returned: > 12.5 µM

Data request: Dear colleague, I am looking for the recorded EC90 of the following molecule: Cc1c(NC(=O)c2cccc(OC(F)(F)F)c2)ccc2nc(NC(C)(C)C(=O)N(C)CCc3ccccn3)oc(=O)c12 [Compound No.172]
Data returned: 9 µM

Data request: Fill blank: measured EC90 of the molecule CCCCOc1ccc(C(=O)Nc2ccc3nc(NC(C)(C)C(=O)N(C)CCc4ccccn4)oc(=O)c3c2C)cc1 [Compound No.165] is ____.
Data returned: 3.6 µM

Data request: I would be grateful if you could share the reported EC90 for Cc1c(NC(=O)OC(C)(C)C)ccc2nc(N3CCCC[C@H]3C(=O)NCc3ccccn3)oc(=O)c12 [Compound No.102] .
Data returned: > 12.5 µM

Data request: Name the recorded EC90 for Cc1c(NC(=O)OC(C)(C)C)ccc2nc(N[C@@H](Cc3ccccc3)C(=O)N(C)Cc3ccccn3)oc(=O)c12 [Compound No.57] .
Data returned: < 3.2 µM

Data request: Look up EC90: CCCCc1ccc(C(=O)NCCCC(=O)Nc2ccc3nc(NC(C)(C)C(=O)N(C)CCc4ccccn4)oc(=O)c3c2C)cc1 [Compound No.214]
Data returned: > 12.5 µM
